Details: in methyl acetate, 298.15 K
Observation type: solubility (mole fraction)

N#CCC(N)=O | 0.0263

====

Settings: in chloroform, 298.15 K
Observation type: solubility (mole fraction)

N#CCC(N)=O | 0.000985

====

Settings: in ethanol, 283.15 K
Observation type: solubility (mole fraction)

N#CCC(N)=O | 0.00681

====

Details: in n-propanol, 273.15 K
Observation type: solubility (mole fraction)

N#CCC(N)=O | 0.0022

====

Conditions: in methyl acetate, 288.15 K
Observation type: solubility (mole fraction)

N#CCC(N)=O | 0.0195

====

Details: in methanol, 313.15 K
Observation type: solubility (mole fraction)

N#CCC(N)=O | 0.0558

====

Conditions: in acetone, 278.15 K
Observation type: solubility (mole fraction)

N#CCC(N)=O | 0.0286

====

Conditions: in ethanol, 293.15 K
Observation type: solubility (mole fraction)

N#CCC(N)=O | 0.0105

====

Settings: in n-propanol, 303.15 K
Observation type: solubility (mole fraction)

N#CCC(N)=O | 0.00935

====

Settings: in n-propanol, 318.15 K
Observation type: solubility (mole fraction)

N#CCC(N)=O | 0.0182

====

Settings: in methanol, 283.15 K
Observation type: solubility (mole fraction)

N#CCC(N)=O | 0.0186

====

Details: in acetone, 273.15 K
Observation type: solubility (mole fraction)

N#CCC(N)=O | 0.0248

====

Details: in chloroform, 293.15 K
Observation type: solubility (mole fraction)

N#CCC(N)=O | 0.000821

====

Details: in ethyl acetate, 273.15 K
Observation type: solubility (mole fraction)

N#CCC(N)=O | 0.0043

====

Settings: in ethyl acetate, 293.15 K
Observation type: solubility (mole fraction)

N#CCC(N)=O | 0.00829

====

Settings: in n-propanol, 293.15 K
Observation type: solubility (mole fraction)

N#CCC(N)=O | 0.00591

====

Conditions: in n-propanol, 278.15 K
Observation type: solubility (mole fraction)

N#CCC(N)=O | 0.00274

====

Details: in methanol, 288.15 K
Observation type: solubility (mole fraction)

N#CCC(N)=O | 0.0227

====

Conditions: in ethyl acetate, 278.15 K
Observation type: solubility (mole fraction)

N#CCC(N)=O | 0.00509

====

Settings: in ethyl acetate, 313.15 K
Observation type: solubility (mole fraction)

N#CCC(N)=O | 0.0149

====

Conditions: in DMF, 308.15 K
Observation type: solubility (mole fraction)

N#CCC(N)=O | 0.343

====

Conditions: in THF, 278.15 K
Observation type: solubility (mole fraction)

N#CCC(N)=O | 0.0112

====

Details: in water, 293.15 K
Observation type: solubility (mole fraction)

N#CCC(N)=O | 0.0313

====

Conditions: in n-butanol, 278.15 K
Observation type: solubility (mole fraction)

N#CCC(N)=O | 0.00246

====

Conditions: in acetonitrile, 283.15 K
Observation type: solubility (mole fraction)

N#CCC(N)=O | 0.0232

====

Settings: in n-butanol, 303.15 K
Observation type: solubility (mole fraction)

N#CCC(N)=O | 0.00667

====

Conditions: in ethyl acetate, 288.15 K
Observation type: solubility (mole fraction)

N#CCC(N)=O | 0.00694

====

Settings: in dichloromethane, 298.15 K
Observation type: solubility (mole fraction)

N#CCC(N)=O | 0.000792

Reference source for all entries: BigSolDB 2.1
